Data origin: patent US11555026B2

Recorded pIC50, one value per entry.
systemUnderTest: AHR (UniProt P35869)
assayName: DRE-Luciferase Reporter Assay (Alternate Method, Example 1B)
Format: cell-based
Design: IC50; other: alternate method: compound and agonist added at plating or after overnight incubation; murine (Hepa1-6, He)
testContext: alternate method: compound and agonist added at plating or after overnight incubation; murine (Hepa1-6, Hepa-1c1c7) or human (HepG2) DRE-luciferase reporter cells, cell line used not stated
pIC50: −log10 of the molar value.

| compound | pIC50 |
| --- | --- |
| CC(=O)Nc1ccc2cc(-c3ccccc3)cnc2c1 [I-47, N-(3-Phenyl-7-quinolyl)acetamide] | < 5.82 |

Req: pIC50 for Cc1ccccc1-c1ccc2cc(NC(=O)c3ccnn3C)ccc2c1 ?
Resp: < 5.82

Req: For Cn1nccc1C(=O)Nc1ccc(C#Cc2ccccc2)cc1 , what is its reported pIC50?
Resp: < 5.82

Req: Consider the compound shown here: Cn1nccc1C(=O)Nc1ccc2c(=O)n(-c3ccccc3)cnc2c1 What is its recorded pIC50?
Resp: < 5.82

Req: Need pIC50 of Cn1nccc1C(=O)Nc1ccc2nc(-c3ccccc3)cnc2c1 , thanks.
Resp: 6.00 to 6.30

Req: Endpoint output: pIC50 of COc1cc(C#Cc2ccccc2)ccc1NC(=O)c1ccnn1C . Value?
Resp: < 5.82

Req: Please report the recorded pIC50 for Cc1cc(/N=N/c2cccc3ccccc23)ccc1NC(=O)c1ccnn1C .
Resp: 6.00 to 6.30
